Molecular target: human Edg-1(S1P1) (Homo sapiens)
Construct: expressed in transfected cells; host or cells: HEK-293
Assay: Cell system binding test: inhibition of [3H]-S1P binding to Edg-1(S1P1) gene transferred HEK-293 cells
Conditions: 10 μM compound, [3H]-S1P 10 nM, read-out: Cell system binding test % inhibition (10 μM)
reported endpoint: inhibition at 10 µM (%)
Provide the reading as a plain figure in %.

Known value: human Edg-1(S1P1) (Homo sapiens) inhibition at 10 µM of the molecule CCn1c(SC2CCc3ccccc3C2)nnc1[C@@H](C)NS(=O)(=O)c1ccc(Cl)cc1 (stereo partly drawn) equals 89.5

// molecule `CCOc1nnc([C@@H](C)NS(=O)(=O)c2ccc(F)c(C(F)(F)F)c2)n1CC` , assay human Edg-1(S1P1) (Homo sapiens), inhibition at 10 µM value: 88.5

Hey, human Edg-1(S1P1) (Homo sapiens) data for `CCn1c(OC)nnc1[C@@H](C)NS(=O)(=O)c1cnoc1C` : inhibition at 10 µM came out at 89.3

So the reported inhibition at 10 µM for `CCn1c(OC)nnc1[C@H](C)NS(=O)(=O)c1ccc(NC(C)=O)cc1` , on human Edg-1(S1P1) (Homo sapiens), turned out to be 92.5

Tested on human Edg-1(S1P1) (Homo sapiens), the item `CCn1c(SC(C)C)nnc1[C@@H](C)NS(=O)(=O)c1ccc(Cl)cc1` showed inhibition at 10 µM equal to 88.7

Field inhibition at 10 µM (human Edg-1(S1P1) (Homo sapiens)), entry `CCn1c(OC)nnc1[C@@H](C)NS(=O)(=O)C(C)C` : 92.2

inhibition at 10 µM for human Edg-1(S1P1) (Homo sapiens) with input `C=CCSc1nnc([C@@H](C)NS(=O)(=O)c2ccc(Cl)cc2)n1C` equals 88.3

# value of inhibition at 10 µM, human Edg-1(S1P1) (Homo sapiens), item `CCn1c(SCC2CCCCCCC2)nnc1[C@@H](C)NS(=O)(=O)c1ccc(Cl)cc1` = 91.9

Per the reported human Edg-1(S1P1) (Homo sapiens) data, `CCn1c(OC)nnc1[C@@H](C)NS(=O)(=O)c1sc(C)nc1C` has inhibition at 10 µM of 92.1

====

Target: human Edg-1(S1P1) (Homo sapiens, UniProt P21453)
Construct: expressed in transfected cells; host or cells: HEK-293
Sequence (P21453 whole entry): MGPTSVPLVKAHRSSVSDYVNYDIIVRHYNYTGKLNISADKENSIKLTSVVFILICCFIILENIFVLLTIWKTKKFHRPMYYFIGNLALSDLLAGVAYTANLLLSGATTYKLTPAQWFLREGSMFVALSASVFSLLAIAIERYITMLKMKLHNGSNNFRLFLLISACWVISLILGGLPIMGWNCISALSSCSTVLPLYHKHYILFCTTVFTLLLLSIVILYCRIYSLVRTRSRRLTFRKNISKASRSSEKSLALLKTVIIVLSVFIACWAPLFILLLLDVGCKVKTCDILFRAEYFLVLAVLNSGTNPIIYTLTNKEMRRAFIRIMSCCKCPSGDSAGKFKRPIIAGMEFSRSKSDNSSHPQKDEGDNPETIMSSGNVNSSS
Experiment: Membrane system binding test: inhibition of [33P]-S1P binding to the membrane fraction of Edg-1(S1P1) gene transferred HEK-293 cells
Conditions: 10 μM compound; [33P]-S1P 0.1 nM; membrane fraction of Edg-1(S1P1) gene transferred HEK-293 cells; read-out: Membrane system binding test % inhibition (10 μM)
reported endpoint: inhibition at 10 µM

So, `CCn1c(OCC(C)(C)C)nnc1[C@@H](C)NS(=O)(=O)c1ccc(Cl)cc1` ? Its inhibition at 10 µM was 90.3%

For this compound ( `CCn1c(OC)nnc1[C@@H](C)NS(=O)(=O)c1ccc(F)c(Cl)c1` ), measured inhibition at 10 µM is 88.6%

# compound `CCOc1nnc([C@@H](C)NS(=O)(=O)c2ccc(Br)c(Br)c2)n1CC` ; its inhibition at 10 µM = 89.1%

====

Consider the following compounds; for each one, report its inhibition at 10 µM.
Target: human Edg-1(S1P1) (Homo sapiens, UniProt P21453)
Construct: expressed in transfected cells; host or cells: HEK-293
Experiment: Membrane system binding test: inhibition of [33P]-S1P binding to the membrane fraction of Edg-1(S1P1) gene transferred HEK-293 cells
Conditions: 10 μM compound; [33P]-S1P 0.1 nM; membrane fraction of Edg-1(S1P1) gene transferred HEK-293 cells; read-out: Membrane system binding test % inhibition (10 μM)
Your reply should be a number followed by the unit it is expressed in.

# compound `CCn1c(SCCc2ccccn2)nnc1[C@@H](C)NS(=O)(=O)c1ccc(Cl)cc1` ; its inhibition at 10 µM = 90.6%

// `CCOc1nnc([C@@H](C)NS(=O)(=O)c2ccc(Cl)cc2)n1CC` : inhibition at 10 µM value = 94.5%

Looking up `CCn1c(OC)nnc1[C@@H](C)NS(=O)(=O)c1cccc(Cl)c1F` , I found its inhibition at 10 µM recorded as 43.5%

Measured inhibition at 10 µM of `CCn1c(SCCOc2ccccc2)nnc1[C@@H](C)NS(=O)(=O)c1ccc(Cl)cc1` : 95%

Sure, the documented inhibition at 10 µM for `C#CCSc1nnc([C@@H](C)NS(=O)(=O)c2ccc(Cl)cc2)n1CC` is 101%
